Cited source for all entries: a melting point compilation (Tetko et al.; mined from patent text by program, amines drawn as free bases though some values may be those of a salt)

Here, each record is paired with measured melting point data.

{"Compound": "CCOC(=O)c1cn(C2CC2)c2c(F)c(N3CC[C@H](NC(=O)OC(C)(C)C)C3)c(F)cc2c1=O", "melting point": "148 to 151 °C"}

I have this compound here, COc1ccc(NC(=O)CCl)c(OC)c1 , and I need its recorded melting point.
90 to 91 °C

Same question, CCCCc1oc2ccccc2c1C(=O)c1cc(Cl)c(O)c(Cl)c1 this time
110 to 114 °C

Same question, Cc1ccc(OCCOS(N)(=O)=O)cc1 this time
108 to 110 °C

----------
Here, each record is paired with measured melting point data.

Previously resolved entries follow.
{"Compound": "O=C(NCc1ccc(Cl)cc1)c1cnc2ccc(-c3ccccc3)cc2c1O", "melting point": "255 to 257 °C"}
{"Compound": "CCOC(=O)c1cn2c(cnc3ccccc32)n1", "melting point": "184 to 187 °C"}
{"Compound": "Cc1[nH]c(C(=O)NCC2=NNC(=O)CC2)c(C)c1-c1nc2ccc(C(=O)c3ccccc3)cc2[nH]1", "melting point": "287 °C"}
{"Compound": "Sc1nc(CCCC2CCCCC2)c[nH]1", "melting point": "176 to 177 °C"}
{"Compound": "Oc1ccc2c(c1)NCC2", "melting point": "115 to 120 °C"}

I have this compound here, NS(=O)(=O)c1ccc(-n2nc(C(F)(F)F)cc2-c2ccc([N+](=O)[O-])cc2)cc1 , and I need its recorded melting point.
173 to 175 °C

Same question, CCCCc1cn2ccccc2c1S(=O)(=O)c1ccc(OCCCBr)cc1 this time
119 °C

----------
Endpoint Name: melting point

{"Compound": "O=C(NC(Cc1c[nH]c2ccccc12)C(=O)Oc1c(F)c(F)c(F)c(F)c1F)OCc1ccccc1 (stereo not given)", "melting point": "169 to 170 °C"}

I have this compound here, O=C(O)c1cn(C2CC2)c2nc(N3Cc4cccc(Cl)c4C3)c(F)cc2c1=O , and I need its recorded melting point.
> 300 °C

Same question, O=C(O)Cn1cc(Br)cnc1=O this time
183 to 185 °C

Same question, COc1ccc(CCN(C)C)c2[nH]c(C(F)(F)F)nc12 this time
182 to 185 °C

Same question, CCN1CC(OCC2(C)CC2)(C(F)(F)F)c2cc(Cl)ccc2NC1=O (stereo not given) this time
171 to 172 °C

Same question, CCN(CC)CCOc1ccc(Nc2ncc3c(n2)N(c2ccccc2)C(=O)N(c2ccc(Cl)cc2Cl)C3)cc1 this time
106 to 108 °C

Same question, CCC(C(C)=CC(CNC(=O)c1cc(C)n[nH]1)=NO)[N+](=O)[O-] (stereo not given) this time
188 to 189 °C

Same question, CC(CN1CCCC1)N1c2ccc(Cl)cc2Sc2ccc(C3=NC4CCCCC4N3)cc21 (racemic) this time
120 °C

Same question, CSc1ccc(-c2c(C(F)(F)F)n(C)[nH]c2=O)cc1 this time
142 to 146 °C

----------
Endpoint Name: melting point

Previously resolved entries follow.
{"Compound": "COC(CSc1nc(SCc2ccccc2)n[nH]1)OC", "Endpoint Name": "melting point", "Result": "73 to 76 °C"}
{"Compound": "O=C(O)CCC(=NOCc1ccc(OCc2cc(-c3ccccc3)no2)cc1)c1ccccc1", "Endpoint Name": "melting point", "Result": "96 to 97 °C"}
{"Compound": "C=CCn1cc(Cc2ccc(C(=O)O)cc2OC)c2cc(CC(=O)NCCCC)ccc21", "Endpoint Name": "melting point", "Result": "78 to 80 °C"}
{"Compound": "O=c1[nH][nH]c(=O)c2c(O)c3cc(Cl)ccc3nc12", "Endpoint Name": "melting point", "Result": "228 to 230 °C"}
{"Compound": "O=C(Cc1ccc(F)cc1)c1c(O)c2cccnc2n(-c2ccccc2)c1=O", "Endpoint Name": "melting point", "Result": "185 to 187 °C"}
{"Compound": "CS(=O)(=O)c1nnc(F)s1", "Endpoint Name": "melting point", "Result": "65 °C"}

I have this compound here, Cc1ccc(-c2nnc3cc(-c4ccccc4)c(OCc4ncn(C)n4)nn23)s1 , and I need its recorded melting point.
209 to 210 °C

Same question, O=C(O)c1cnn2ccc(-c3ccc(Cl)cc3)nc12 this time
309 to 311 °C

Same question, Oc1ccc(Sc2cnnc3ccccc23)cc1 this time
238 °C

----------
Endpoint Name: melting point (°C)

{"Compound": "O=C(O)CCC(=O)Oc1c(Cc2ccccc2)ccc2ccccc12", "melting point / °C": 140}
{"Compound": "COc1ccc(CCNc2ncnc3occ(C)c23)cc1", "melting point / °C": 184}

----------
Here, each record is paired with measured melting point data.

{"Molecule": "O=C(C1CO1)C(Cl)(Cl)Cl (configuration not stated)", "melting point": "92 to 95 °C"}

I have this molecule here, C=CCN(CC=C)Cc1noc(-c2ncn3c2CN(C)C(=O)c2c(Cl)cccc2-3)n1 , and I need its recorded melting point.
125 to 130 °C

Same question, Nc1ccc2c(ccn2O)n1 this time
227 to 228 °C

----------
Endpoint Name: melting point (°C)

{"Compound": "CN(C(=O)CN(C(=O)CNC(=O)Nc1cccc(N2CCCCC2)c1)c1ccccc1)c1ccccc1", "melting point [°C]": 235}
{"Compound": "N#Cc1cnn2c(C(F)(F)F)cc(-c3ccc(F)c(Cl)c3)nc12", "melting point [°C]": 190}

----------
Here, each record is paired with measured melting point data.

{"Compound": "O=c1[nH]c2scnc2c2c(O)cccc12", "Endpoint Name": "melting point", "Result": "> 250 °C"}
{"Compound": "COc1ccc(C(=O)Nc2ccc(C)c(C)c2)cc1NC(=S)Nc1cccc(C)c1", "Endpoint Name": "melting point", "Result": "155 to 160 °C"}
{"Compound": "CCCCCc1cc2c(cc1C#C/C=C/C(C)=C/C(=O)O)C(C)(C)CCC2(C)C", "Endpoint Name": "melting point", "Result": "155 to 156 °C"}

I have this compound here, Cc1cc2c3c(ccc2cc1C(=O)c1ccc(Cl)cc1)OC(=O)C3(C)C , and I need its recorded melting point.
130 to 132 °C

----------
Endpoint Name: melting point

{"Molecule": "CC(CCCC(O)(C(F)(F)F)C(F)(F)F)C1CCC2C3C=CC4=CC(=O)C=CC4(C)C3CCC12C (stereo not drawn)", "melting point": "166 to 168 °C"}
{"Molecule": "N#Cc1cccc(C=Cc2ccc(Cl)cc2)n1", "melting point": "113 to 115 °C"}
{"Molecule": "Cc1ccc(S(=O)(=O)Nc2coc3ccccc3c2=S)cc1", "melting point": "212 °C"}

I have this molecule here, CC(C)Nc1nccc(C#Cc2ccc(F)cc2)n1 , and I need its recorded melting point.
128 to 129 °C

Same question, O=C(O)Cn1cc(Cl)cnc1=O this time
186 to 188 °C

Same question, CC(C(=O)NCCN(C)C)c1ccc(-c2cn3ccccc3n2)cc1 (stereo not drawn) this time
149 to 150 °C

----------
Here, each record is paired with measured melting point data.

Previously resolved entries follow.
{"Molecule": "CON1CCC(C#N)(NO)CC1", "melting point": "130 to 131 °C"}
{"Molecule": "CCS(=O)(=O)N(C)C1c2cc(F)c(Cl)cc2OC(C)(C)C1OC(C)=O (centres undefined)", "melting point": "143 to 144 °C"}
{"Molecule": "Cc1oc(-c2ccccc2)nc1COc1ccc(COc2ccc3ccccc3c2CCC(=O)O)cc1", "melting point": "161 to 162 °C"}

I have this molecule here, c1ccc2c(c1)OC[C@H](CN1CCC(CNc3nc4cccnc4s3)CC1)O2 , and I need its recorded melting point.
160 °C

Same question, O=C(/C=C/c1cccnc1)NCCc1cccc(O)c1 this time
163 to 164 °C

----------
Endpoint Name: melting point

Previously resolved entries follow.
{"Compound": "O=C(c1ccc(F)cc1)N1CCC[C@H](c2noc(Cc3ccccc3)n2)C1", "Result": "75 °C"}
{"Compound": "[N-]=[N+]=NCc1ccc(C(=O)c2c(Cl)cccc2Cl)cc1", "Result": "92 to 94 °C"}
{"Compound": "CC(=O)Nc1cc(S(=O)(=O)c2ccccc2)ccc1NC(=O)C(C)(O)C(F)(F)F (stereo not given)", "Result": "205 to 207 °C"}

I have this compound here, COc1ccc(C(=O)c2sc3cc(OC)ccc3c2-c2ccccc2)cc1 , and I need its recorded melting point.
127 to 128 °C

Same question, Nc1nc(NCC2CC2)c2ncn(C3C=CC(CO)C3)c2n1 (stereo not given) this time
130 to 131 °C

----------
Endpoint Name: melting point (°C)

{"Compound": "CC(C)c1nc2ccccc2cc1S(=O)(=O)c1ccc(O)cc1", "Quantity Unit": "°C", "melting point": 185}

(I) CCOc1ccc2c(c1)n(C1CCCCC1)c(=O)n2S(=O)(=O)c1ccc(C(=O)NC(C)(C)CC(C)(C)C)cc1OC
(II) COc1cccc(N2CCN(c3cc4c(cc3F)ncc3c4c(=O)c(C(=O)O)cn3C)CC2C)c1 (centres undefined)
Lab note: check whether I or II has the lower measured melting point. Let me know the label of the one you choose.
I
